Listed below: efflux ratio at 1 µM values for each entry.
Test system: P-gp-BCRP
Procedure Text: P-gp-BCRP efflux ratio, cellular transport assay
Type: in vitro ADME, human
Experimental Conditions: human, not told; 1 µM
Assay Metric: efflux ratio at 1 µM

> print(dat)
                                   molecule  experimental.system          assay.metric  readout.number
1  Cc1cc(Nc2ncnc3ccc(NC4=NC(C)(C)CO4)cc23)ccc1Oc1ccn2ncnc2c1 [Tucatinib, reference compound]            P-gp-BCRP  efflux ratio at 1 µM              64
2  COc1cc(O[C@H]2CCN(C)CC2(F)F)c2c(Nc3ccc(Oc4ccn5ncnc5c4)c(C)c3)ncnc2c1            P-gp-BCRP  efflux ratio at 1 µM             1.8
